Where these numbers come from: patent US9045461B2

# experimentalTarget: sRAGE binding to β-amyloid (Homo sapiens, UniProt Q15109)
# Construct: extracellular domain can be isolated by proteolysis of RAGE to generate soluble RAGE (sRAGE) comprised of the V and C domains
# experimentSummary: RAGE binding assay (ELISA), β-amyloid as the RAGE ligand
# particulars: compounds tested in hydrochloride salt form, concentration at which 50% signal has been inhibited
Where a name gives a salt, the structure may show the parent alone.
measure: IC50 (µM)

Please review the following examples before continuing.
{"molecule": "CCCCc1nnc(OCCCN2CCOCC2)cc1-c1ccc(OCc2ccccc2)cc1 [Example 8, dihydrochloride]", "unitAbbreviation": "µM", "IC50": 3.72}
{"molecule": "CCCCc1nnc(O[C@@H]2CCN(C)C2)cc1-c1ccc(OC2CCCCC2)cc1 [Example 29, dihydrochloride]", "unitAbbreviation": "µM", "IC50": 2.36}
{"molecule": "CCCCc1nnc(OC2CCN(C)CC2)cc1-c1ccc(OC2CCC(F)(F)CC2)cc1 [Example 19, dihydrochloride]", "unitAbbreviation": "µM", "IC50": 0.87}

[a] CCCCc1nnc(C(=O)N(C2CC2)C2CCN(C)CC2)cc1-c1ccc(OC2CCCCC2)cc1 [Example 115, dihydrochloride]
[b] CCCCc1nnc(O[C@H]2CCN(C)C[C@@H]2F)cc1-c1ccc(OC2CCCCC2)cc1 (racemic) [Example 41, dihydrochloride]
[c] CCCCc1nnc(OC2CCN(C)CC2)cc1-c1ccc(OC2CCCCC2)c(N2CCCC2=O)c1 [Example 68, dihydrochloride]
[d] CCCCc1nnc(OC[C@@H]2CCCN3CCCC[C@H]23)cc1-c1ccc(OC2CCCCC2)cc1 [Example 28, dihydrochloride]
## Input Rank entries according to their IC50, from the largest number down. Give me the labels in the order the question wants.
## Output b, c, d, a
(b: 4.04 µM, c: 2.49 µM, d: 1.66 µM, a: 1 µM)

----------
# experimentalTarget: sRAGE binding to S100b (Homo sapiens, UniProt Q15109)
# Construct: extracellular domain can be isolated by proteolysis of RAGE to generate soluble RAGE (sRAGE) comprised of the V and C domains
# Sequence (Q15109 23-342 limits assumed): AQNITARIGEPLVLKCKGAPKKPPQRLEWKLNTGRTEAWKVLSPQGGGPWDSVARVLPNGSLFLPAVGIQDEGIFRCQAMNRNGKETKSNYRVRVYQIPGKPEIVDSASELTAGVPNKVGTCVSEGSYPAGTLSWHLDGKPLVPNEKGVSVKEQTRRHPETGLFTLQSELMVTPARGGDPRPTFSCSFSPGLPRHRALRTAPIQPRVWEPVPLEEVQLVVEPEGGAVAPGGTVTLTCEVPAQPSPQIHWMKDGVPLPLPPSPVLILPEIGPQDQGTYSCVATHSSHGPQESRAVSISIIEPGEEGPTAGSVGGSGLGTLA
# experimentSummary: RAGE binding assay (ELISA), S100b as the RAGE ligand
# particulars: compounds tested in hydrochloride salt form, concentration at which 50% signal has been inhibited
Structures can show the parent of a compound that is named as a salt.
measure: IC50 (nM)

{"molecule": "CCCCc1nnc(OC[C@H]2CN(C)CC[C@H]2O)cc1-c1ccc(OC2CCCCC2)cc1 (racemic) [Example 43, dihydrochloride]", "unitAbbreviation": "nM", "IC50": 2070}

[I] CCCCc1nnc(OC2CCN(C)CC2)cc1-c1ccc(OC2CCCCC2)c(-c2cnn(CCOC)c2)c1 [Example 78, dihydrochloride]
[II] CCCCc1nnc(C(=O)N2CCC(CN(C)C)C(F)(F)C2)cc1-c1ccc(OC2CCCCC2)cc1 (centres unmarked) [Example 105, dihydrochloride]
## Input Which one would you say has the larger IC50 value: I , or II ? Write the label of whichever entry you select.
## Output II
(II: 1390 nM, I: 500 nM)

[A] CCCCc1nnc(C(=O)NCC2CCN(C)CC2)cc1-c1ccc(OCc2ccccc2)cc1 [Example 81, dihydrochloride]
[B] CCCc1nnc(OC2CCN(C)CC2)cc1-c1ccc(OCc2ccccc2)cc1 [Example 12, dihydrochloride]
## Input I need your help: which of the pair A , B has higher IC50? Response format: the label of the selected entry.
## Output A
(A: 1820 nM, B: 1190 nM)

[A] CCCCc1nnc(OC2CCN(CCC3OCCCO3)CC2)cc1-c1ccc(OC2CCCCC2)cc1 [Example 18, dihydrochloride]
[B] CCCCc1nnc(OC2CCN(CCc3nnn(C)n3)CC2)cc1-c1ccc(OC2CCCCC2)cc1 [Example 21, dihydrochloride]
## Input Among A and B , which shows a numerically higher IC50 result? Kindly state the label of the option you pick.
## Output B
(B: 1340 nM, A: 830 nM)

[1] CCCCc1nnc(C(=O)N(C2CC2)C2CCN(C)CC2)cc1-c1ccc(OC2CCCCC2)cc1 [Example 115, dihydrochloride]
[2] CCCCc1nnc(C(=O)N2CC[C@@H](CN(C)C)[C@@H](OC)C2)cc1-c1ccc(OC2CCCCC2)cc1 (racemic) [Example 102, dihydrochloride]
## Input # compare IC50 for 1 vs 2 ; return the one with the smaller value # answer = label of selected item
## Output 1

----------
# experimentalTarget: sRAGE binding to β-amyloid (Homo sapiens, UniProt Q15109)
# Construct: extracellular domain can be isolated by proteolysis of RAGE to generate soluble RAGE (sRAGE) comprised of the V and C domains
# experimentSummary: RAGE binding assay (ELISA), β-amyloid as the RAGE ligand
# particulars: compounds tested in hydrochloride salt form, concentration at which 50% signal has been inhibited
Structures can show the parent of a compound that is named as a salt.
measure: IC50 (nM)

Below are worked cases with known answers.
{"molecule": "CCCCc1nnc(OC2CCN(C)CC2)cc1-c1ccc(OCC2CCN(C(C)=O)CC2)cc1 [Example 55, dihydrochloride]", "IC50 / nM": 9180}
{"molecule": "CCCCc1nnc(OCC[C@H]2CCCCN2C)cc1-c1ccc(OC2CCCCC2)cc1 [Example 32, dihydrochloride]", "IC50 / nM": 1780}
{"molecule": "CCCc1nnc(OC2CCN(C)CC2)cc1-c1ccc(OCc2ccccc2)cc1 [Example 12, dihydrochloride]", "IC50 / nM": 1540}
{"molecule": "CCCCc1nnc(OC2CCN(C)CC2)cc1-c1ccc(OC2CCCCC2)c(C(=O)OC)c1 [Example 71, dihydrochloride]", "IC50 / nM": 1590}
{"molecule": "CCCCc1nnc(OC2CCN(C)CC2CO)cc1-c1ccc(OC2CCCCC2)cc1 (stereo not shown) [Example 38, dihydrochloride]", "IC50 / nM": 2470}
{"molecule": "CCCCc1nnc(C(=O)NCC2CNCCO2)cc1-c1ccc(OC2CCCCC2)cc1 (stereo not shown) [Example 90, dihydrochloride]", "IC50 / nM": 1780}
{"molecule": "CCCCc1nnc(O[C@H]2CC[C@H](NC)CC2)cc1-c1ccc(OC2CCCCC2)cc1 [Example 37, dihydrochloride]", "IC50 / nM": 1650}
{"molecule": "CCCCc1nnc(OC2CCN(CC(C)(C)O)CC2)cc1-c1ccc(OC2CCCCC2)cc1 [Example 22, dihydrochloride]", "IC50 / nM": 1120}

[A] CCCCc1nnc(C(=O)NCC2=CCN(C)CC2)cc1-c1ccc(OC2CCCCC2)cc1 [Example 108, dihydrochloride]
[B] CN1CCC(Oc2cc(-c3ccc(OCc4ccccc4)cc3)c(C(F)(F)F)nn2)CC1 [Example 13, dihydrochloride]
## Input From the items above, decide which of A and B has the lower IC50 reading. Respond with the label that goes with your answer.
## Output A
(A: 860 nM, B: 2620 nM)

[1] CCCCc1nnc(OC2CCN(CCC(=O)OCC)CC2)cc1-c1ccc(OC2CCCCC2)cc1 [Example 15, dihydrochloride]
[2] CCCCc1nnc(O[C@H]2CCN(C)C[C@H]2F)cc1-c1ccc(OC2CCCCC2)cc1 (racemic) [Example 42, dihydrochloride]
## Input Looking at recorded values for IC50, does 1 or 2 come in lower? Your answer should be the label of the entry you select.
## Output 1

----------
# experimentalTarget: sRAGE binding to β-amyloid (Homo sapiens, UniProt Q15109)
# Construct: extracellular domain can be isolated by proteolysis of RAGE to generate soluble RAGE (sRAGE) comprised of the V and C domains
# experimentSummary: RAGE binding assay (ELISA), β-amyloid as the RAGE ligand
# particulars: compounds tested in hydrochloride salt form, concentration at which 50% signal has been inhibited
Structures can show the parent of a compound that is named as a salt.
measure: IC50 (nM)

{"molecule": "CCCCc1nnc(OC2CCN(C)CC2)cc1-c1ccc(OC2CCCCC2)c(NC(=O)NC(C)(C)C)c1 [Example 77, dihydrochloride]", "experimentalTarget": "sRAGE binding to β-amyloid (Homo sapiens, UniProt Q15109)", "endpointResult": 660}

[P] CCCCc1nnc(C(=O)N2CCO[C@@H](CN(C)C)C2)cc1-c1ccc(OC2CCCCC2)cc1 [Example 97, dihydrochloride]
[Q] CCCCc1nnc(OC2CCN(C)CC2)cc1-c1ccc(OC2CCCCC2)c(-c2cnoc2)c1 [Example 72, dihydrochloride]
## Input Lowest IC50? choose P or Q Kindly give the label for the entry you pick.
## Output Q
(Q: 1200 nM, P: 1720 nM)

[1] CCCCc1nnc(OC2CCN(CCO)CC2)cc1-c1ccc(OC2CCCCC2)cc1 [Example 17, dihydrochloride]
[2] CCCCc1nnc(OC[C@H]2CN(C)CC[C@H]2OC)cc1-c1ccc(OC2CCCCC2)cc1 (racemic) [Example 44, dihydrochloride]
## Input API: POST /compare with 1 and 2 ; response names the item with higher IC50. Lab note: record the label of whichever item you select.
## Output 1
